Measurement name: melting point

Past entries and their recorded results:
Cl.O=C(N[C@H]1CN2CCC1CC2)c1ccc2ncsc2c1
285 °C (dec.)
Cl.O=C(N[C@@H]1CN2CCC1CC2)c1ccc2scnc2c1
166 to 176 °C
Cl.O=C(N[C@@H]1CN2CCC1CC2)c1cccc2cn[nH]c12
180 to 188 °C

Q: So what's the measured melting point for this one? Cl.O=C(N[C@H]1CN2CCC1CC2)c1ccc2scnc2c1
Ans: 170 to 180 °C
